TARGET_OF_ASSAY: 11β-HSD1 (Homo sapiens, UniProt P28845)
TEST_NAME: Active site titration, cortisol dehydrogenation by 11β-HSD1 with increasing inhibitor
CONDITION_PARAMETERS: dehydrogenase reaction, 50 μM cortisol, 100 μM NADP+; fitted to Morrison equation; read-out: Ki^app
Sequence (P28845 with tags, fused parts or gaps): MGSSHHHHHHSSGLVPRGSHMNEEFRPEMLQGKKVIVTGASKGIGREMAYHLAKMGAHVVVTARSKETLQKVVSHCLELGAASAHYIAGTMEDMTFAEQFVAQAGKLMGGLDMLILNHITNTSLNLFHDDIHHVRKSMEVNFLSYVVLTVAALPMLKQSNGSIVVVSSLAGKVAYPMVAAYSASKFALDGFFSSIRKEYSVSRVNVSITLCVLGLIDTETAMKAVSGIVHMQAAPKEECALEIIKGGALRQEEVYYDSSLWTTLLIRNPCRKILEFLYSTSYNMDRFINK
pKi: −log10 of the molar value.

SMILES_STRUCTURE	pKi
Cc1sc(NS(=O)(=O)c2cccc(Cl)c2C)nc1CCN1CCOCC1=O	7.49

====

TARGET_OF_ASSAY: 11β-HSD1 (Homo sapiens, UniProt P28845)
TEST_NAME: Ki values for 11β-HSD1 (stated, no method given)
Format: biochemical
CONDITION_PARAMETERS: range in words only
Sequence (P28845 24-292): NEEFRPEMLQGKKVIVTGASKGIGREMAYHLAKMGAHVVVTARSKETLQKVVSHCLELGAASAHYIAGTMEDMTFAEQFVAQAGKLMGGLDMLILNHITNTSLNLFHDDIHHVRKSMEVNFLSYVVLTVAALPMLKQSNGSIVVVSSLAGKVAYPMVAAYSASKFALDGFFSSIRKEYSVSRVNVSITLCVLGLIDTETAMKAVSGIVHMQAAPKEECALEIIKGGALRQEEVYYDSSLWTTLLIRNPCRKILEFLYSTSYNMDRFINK
ATTRIBUTE_MEASURED: Ki values for 11β-HSD1

SMILES_STRUCTURE	VALUE
Cc1c(Cl)cccc1S(=O)(=O)Nc1nc(CCN2CCOCC2=O)cs1	nanomolar range
Cc1c(Cl)cccc1S(=O)(=O)Nc1nc(CC(=O)N2CCN(C)CC2)cs1	micromolar range
Cc1sc(NS(=O)(=O)c2cccc(Cl)c2C)nc1CCN1CCOCC1=O	nanomolar range
CCCc1ccc(S(=O)(=O)Nc2ccsc2C(=O)N(CC)CC)cc1	micromolar range
